- Assayed system: Ubiquitin-activating enzyme e1, putative (Leishmania donovani (strain BPK282A1)) (UniProt E9BSI1)
- Sequence (E9BSI1 as listed by the source): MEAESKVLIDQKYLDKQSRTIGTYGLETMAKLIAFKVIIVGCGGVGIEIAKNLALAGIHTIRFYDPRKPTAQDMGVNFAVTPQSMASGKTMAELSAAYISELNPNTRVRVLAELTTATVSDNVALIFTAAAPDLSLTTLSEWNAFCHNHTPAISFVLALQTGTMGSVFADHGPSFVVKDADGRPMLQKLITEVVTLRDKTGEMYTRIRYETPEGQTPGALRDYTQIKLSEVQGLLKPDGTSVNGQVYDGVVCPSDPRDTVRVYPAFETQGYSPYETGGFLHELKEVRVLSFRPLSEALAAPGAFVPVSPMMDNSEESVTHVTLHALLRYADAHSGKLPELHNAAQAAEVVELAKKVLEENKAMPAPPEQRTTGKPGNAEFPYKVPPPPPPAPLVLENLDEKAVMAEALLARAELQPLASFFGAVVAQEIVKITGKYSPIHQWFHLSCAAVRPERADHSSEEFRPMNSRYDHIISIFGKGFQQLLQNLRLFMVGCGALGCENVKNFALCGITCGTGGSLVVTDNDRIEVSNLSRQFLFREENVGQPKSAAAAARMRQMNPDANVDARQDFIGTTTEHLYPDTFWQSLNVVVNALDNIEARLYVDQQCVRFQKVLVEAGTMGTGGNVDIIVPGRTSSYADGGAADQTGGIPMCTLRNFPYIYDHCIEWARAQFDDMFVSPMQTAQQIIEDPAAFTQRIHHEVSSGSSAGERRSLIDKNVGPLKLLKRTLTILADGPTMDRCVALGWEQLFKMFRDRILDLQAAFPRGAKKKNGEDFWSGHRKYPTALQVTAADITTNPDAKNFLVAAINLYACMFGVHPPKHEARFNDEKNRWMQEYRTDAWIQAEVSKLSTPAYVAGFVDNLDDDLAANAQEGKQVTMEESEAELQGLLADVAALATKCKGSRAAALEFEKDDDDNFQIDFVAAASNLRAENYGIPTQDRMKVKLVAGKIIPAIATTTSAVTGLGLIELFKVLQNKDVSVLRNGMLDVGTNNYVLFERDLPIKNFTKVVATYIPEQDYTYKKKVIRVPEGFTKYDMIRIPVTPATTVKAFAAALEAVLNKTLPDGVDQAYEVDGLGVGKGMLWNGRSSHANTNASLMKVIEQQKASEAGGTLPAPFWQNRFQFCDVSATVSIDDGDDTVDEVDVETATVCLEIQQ
- Experiment: Leishmania donovani Ubiquitin Activating Enzyme (LdE1)
- Format: functional
- Design: scale not given: direction of the effect not stated beside the values
- Condition parameters: 30 µM
Potency and affinity values are given separately.
Experimental readout: Percent Effect (%)
Express the result in % but write the number alone.

Measured Percent Effect of CCOC1CCCN(C(=O)c2cnc3c(cnn3C3CCCC3)c2)C1 (centres undefined) : 0

# Percent Effect (compound: `Cc1ccoc1C(=O)NC1CCN(Cc2csc3c(F)cccc23)CC1` ) is -1.27

Percent Effect measured on `O=C(O)c1c[nH]c2cc(NS(=O)(=O)c3cccc(Cl)c3F)ccc12` = -10.4

Measured Percent Effect of `CCc1noc(CN2CCCN(C(N)=O)CC2)n1` : 0

Please fill in: Percent Effect reported for `Cc1cc(C(=O)N2CC[C@@H]3CN(c4ncccn4)CCO[C@@H]3C2)c(C)o1` = 16.2

Noted for Cc1nccnc1N1CCC2(CCCN(C3CCOCC3)C2=O)C1 (centres undefined) : its Percent Effect reads -2.74

###

- Assayed system: AMP-activated protein kinase, AMPK (Homo sapiens) (UniProt P54646+O43741+P54619+Q9UGJ0+Q9Y478+Q13131+Q9UGI9)
- Experiment: AMP-dependent Kinase enzyme assay. An in vitro enzyme assay that detects ADP turnover that is directly proportional to AMPK activity. This uses naive AMPK that is activated during the assay with MK-8722
- Type: functional
- Design: scale not given: direction of the effect not stated beside the values
- Condition parameters: 30 µM
Experimental readout: Percent Effect (%)
Use % as the unit, but write only the number.

compound=O=C(C1=CCCC1)N1C[C@H](Oc2cccnc2)[C@H]2OCCC[C@H]21 experimental_readout="Percent Effect" data_value=3.36
compound="Cc1ccc(CNC(=O)N2CCCCC2CCNS(C)(=O)=O)cc1 (centres undefined)" experimental_readout="Percent Effect" data_value=2.59
compound=CCOCCC(=O)Nc1cccc(Oc2ccccn2)c1 experimental_readout="Percent Effect" data_value=-0.587
compound=NC(=O)NCCC(=O)NCc1cccnc1N1CCc2ccccc2C1 experimental_readout="Percent Effect" data_value=-5.95

Recorded Percent Effect (compound Cc1nn(C)c(C)c1CNC1CCOc2ccccc21 (centres undefined) ): -3.93

Entry under test: Cc1csc(CNC(=O)NCC(O)c2cccc(Cl)c2)n1 (centres undefined) . Its Percent Effect was -4.44

Summary for this compound, `CN(C(=O)Cc1ccc2c(c1)OCCO2)C1CCCC1` : Percent Effect is 1.6

###

- Assayed system: Protein translocase subunit SecA (Escherichia coli (strain K12)) (UniProt P10408)
- Sequence (P10408 whole entry): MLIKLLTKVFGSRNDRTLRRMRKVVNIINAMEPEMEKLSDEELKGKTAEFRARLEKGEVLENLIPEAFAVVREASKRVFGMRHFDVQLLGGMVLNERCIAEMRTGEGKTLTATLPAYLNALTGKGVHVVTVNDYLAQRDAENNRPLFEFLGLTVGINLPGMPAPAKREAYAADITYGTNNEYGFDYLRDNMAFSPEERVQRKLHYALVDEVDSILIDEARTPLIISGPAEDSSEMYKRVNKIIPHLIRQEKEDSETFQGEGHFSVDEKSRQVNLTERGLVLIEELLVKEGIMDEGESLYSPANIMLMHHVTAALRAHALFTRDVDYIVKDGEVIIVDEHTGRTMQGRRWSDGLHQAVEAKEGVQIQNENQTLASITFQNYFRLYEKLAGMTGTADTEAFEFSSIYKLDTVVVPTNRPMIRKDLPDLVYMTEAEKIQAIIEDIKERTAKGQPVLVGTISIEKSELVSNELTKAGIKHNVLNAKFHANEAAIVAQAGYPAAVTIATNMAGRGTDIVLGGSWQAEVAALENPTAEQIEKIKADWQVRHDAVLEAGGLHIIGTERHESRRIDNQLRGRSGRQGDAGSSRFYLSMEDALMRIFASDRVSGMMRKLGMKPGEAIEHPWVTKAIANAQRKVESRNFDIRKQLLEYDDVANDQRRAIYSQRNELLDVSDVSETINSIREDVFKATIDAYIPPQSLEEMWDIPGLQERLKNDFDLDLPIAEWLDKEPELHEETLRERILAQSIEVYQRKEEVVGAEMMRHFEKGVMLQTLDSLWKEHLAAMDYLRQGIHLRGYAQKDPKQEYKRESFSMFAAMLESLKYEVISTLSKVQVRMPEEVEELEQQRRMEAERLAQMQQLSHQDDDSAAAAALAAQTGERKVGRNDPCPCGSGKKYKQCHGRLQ
- Experiment: Assay to Identify E. coli SecA ATPase Inhibitors
- Type: functional
- Design: scale not given: direction of the effect not stated beside the values
- Condition parameters: 30 µM
Measured potencies and affinities stand elsewhere.
Listed next: entries and their corresponding Percent Effect.
The answer is to be given in %; state only the numeric part.

// below: answered molecules
molecule="CC1CN(CC(=O)Nc2cccnc2)CCN1c1nccs1 (stereo not drawn)" assayed_system="Protein translocase subunit SecA (Escherichia coli (strain K12)) (UniProt P10408)" data_value=-0.157
molecule=Nc1ncc2c(n1)CN(C1CCCC1)C2=O assayed_system="Protein translocase subunit SecA (Escherichia coli (strain K12)) (UniProt P10408)" data_value=-4.34

Summary line: `c1ccc(-c2noc(CN3CCC(c4ccn[nH]4)CC3)n2)cc1` , Protein translocase subunit SecA (Escherichia coli (strain K12)) (UniProt P10408), reported Percent Effect = 1.64

Summary line: `Cc1occc1C(=O)N1CCc2ncnc(-c3cnn(C)c3)c2CC1` , Protein translocase subunit SecA (Escherichia coli (strain K12)) (UniProt P10408), reported Percent Effect = -2.67
